Protocol: Solubility of mono-fungicides in the solvent of Example 1 and prior art solvents (Example 2)
Condition Label: solvent Cyrene; 24° C.
Reported Property: Maximum solubility (w/v) in Cyrene

Sample answers from the record:
COC(=O)N(OC)c1ccccc1COc1ccn(-c2ccc(Cl)cc2)n1 :: 45% (45%) % (w/v)
OC(Cc1ccccc1Cl)(Cn1nc[nH]c1=S)C1(Cl)CC1 (stereo not shown) :: 10% (10%) % (w/v)

List reported Maximum solubility (w/v) in Cyrene for each of these compounds:
1. CO/C=C(/C(=O)OC)c1ccccc1Oc1cc(Oc2ccccc2C#N)ncn1
2. CC(C)N(C)S(=O)(=O)NC(=O)c1cc(-n2c(=O)cc(C(F)(F)F)n(C)c2=O)c(F)cc1Cl

Result:
1. 20% (20%) % (w/v)
2. 10% (10%) % (w/v)

====

Protocol: Solubility of mono-fungicides in the solvent of Example 1 and prior art solvents (Example 2)
Condition Label: solvent Cyrene; 0° C. after seeding
Reported Property: Maximum solubility (w/v) in Cyrene

# count of solved cases: 3
COC(=O)N(OC)c1ccccc1COc1ccn(-c2ccc(Cl)cc2)n1 :: 45% (45%) % (w/v)
OC(Cc1ccccc1Cl)(Cn1nc[nH]c1=S)C1(Cl)CC1 (stereo not shown) :: 10% (10%) % (w/v)
CO/C=C(/C(=O)OC)c1ccccc1Oc1cc(Oc2ccccc2C#N)ncn1 :: 20% (20%) % (w/v)

Kindly review the next compound as well.
Request: Look up Maximum solubility (w/v) in Cyrene: "CC(C)N(C)S(=O)(=O)NC(=O)c1cc(-n2c(=O)cc(C(F)(F)F)n(C)c2=O)c(F)cc1Cl"
Result: 10% (10%) % (w/v)

====

Protocol: Solubility of mono-fungicides in the solvent of Example 6 and prior art solvents (Example 7)
Condition Label: solvent Cyrene; 24° C.
Reported Property: Maximum solubility (w/v) in Cyrene

Sample answers from the record:
OC(Cc1ccccc1Cl)(Cn1nc[nH]c1=S)C1(Cl)CC1 (stereo not shown) :: 10% (w/v)
COC(=O)N(OC)c1ccccc1COc1ccn(-c2ccc(Cl)cc2)n1 :: 45% (w/v)
CC(C)N(C)S(=O)(=O)NC(=O)c1cc(-n2c(=O)cc(C(F)(F)F)n(C)c2=O)c(F)cc1Cl :: 10% (w/v)

Please turn your attention to the following entry.
Request: Please give the measured Maximum solubility (w/v) in Cyrene for this molecule: "CO/C=C(/C(=O)OC)c1ccccc1Oc1cc(Oc2ccccc2C#N)ncn1"
Result: 20% (w/v)

====

Protocol: Solubility of mono-fungicides in the solvent of Example 1 and prior art solvents (Example 2)
Condition Label: solvent Example 1; 0° C. after seeding
Reported Property: Maximum solubility (w/v) in Example 1

Study these solved cases before continuing.
CO/C=C(/C(=O)OC)c1ccccc1Oc1cc(Oc2ccccc2C#N)ncn1 [Azoxystrobin] :: 10% (10%) % (w/v)
OC(Cc1ccccc1Cl)(Cn1nc[nH]c1=S)C1(Cl)CC1 (stereo not shown) [Prothioconazole] :: 50% (50%) % (w/v)
COC(=O)N(OC)c1ccccc1COc1ccn(-c2ccc(Cl)cc2)n1 [Pyraclostrobin] :: 45% (45%) % (w/v)

Turning now to a further compound:
Request: Endpoint output: Maximum solubility (w/v) in Example 1 of CC(C)N(C)S(=O)(=O)NC(=O)c1cc(-n2c(=O)cc(C(F)(F)F)n(C)c2=O)c(F)cc1Cl [Saflufenacil] . Value?
Result: 20% (20%) % (w/v)

====

Could you please report measured Maximum solubility (w/v) in Rhodiasolv ADMA10 for the items listed next?
Protocol: Solubility of mono-fungicides in the solvent of Example 6 and prior art solvents (Example 7)
Condition Label: solvent Rhodiasolv ADMA10; 24° C.

Could you tell me Maximum solubility (w/v) in Rhodiasolv ADMA10 for each of these compounds? They are listed below.
1. CO/C=C(/C(=O)OC)c1ccccc1Oc1cc(Oc2ccccc2C#N)ncn1 [Azoxystrobin]
2. OC(Cc1ccccc1Cl)(Cn1nc[nH]c1=S)C1(Cl)CC1 (stereo not shown) [Prothioconazole]
3. COC(=O)N(OC)c1ccccc1COc1ccn(-c2ccc(Cl)cc2)n1 [Pyraclostrobin]
4. CC(C)N(C)S(=O)(=O)NC(=O)c1cc(-n2c(=O)cc(C(F)(F)F)n(C)c2=O)c(F)cc1Cl [Saflufenacil]

Result:
1: 2% (w/v); 2: 40% (w/v); 3: 15% (w/v); 4: 10% (w/v)
